# Assay info: yeast display, Sf9 membrane polyspecificity reagent, FACS + sequencing; frameworks hold sequencing errors
Recorded endpoint: polyreactivity (PSR sort gate)

These solved cases illustrate the format of a correct answer.
Ordered residues	Result
QVQLVESGGGLVQAGGSLRLSCAASGFTFEWYTMGWYRQAPGKERELVADISGDGTTYYADSVKGRFTISRDNAKNTLYLQMNSLKPEDTAVYYCAARTVGRKAGFDYWGQGTQVTVSS	high polyreactivity
QVQLVESGGGLVQAGGSLRLSCAAYGRILSLYAMGWYRQAPGKERQLVAAIRWSGSRTYYADSVKGRFTISRDNAKNTVYLQMNSLKPEDTAVYYCAARDSTNLLSGYTHYYWGQGTQVTVSS	high polyreactivity
QVQLVESGGGLVQAGGSLRLSCAASGRTLRRNAMGWYRQAPGKERELVAAITWSGTSTYYADSVKGRFTISRDNAKNTVDLQMNSLKPEDTAVYYCAAEVAYTDTEYFWYYYWGQGTQVTVSS	high polyreactivity
QVQLVESGGGIVQAGGSLRLSCAASGSIFDYYTKAWYRQAPGKEREMVAAISWSGGSTYYADSVKGRFTISRDNAKNTVYLQMYSLKPEDTAVYYCATRVRTRTGYQYYYWGQGTQVTVSS	high polyreactivity
QVQLVESGGGLVQAGGSLRLSCAASGSIFGIYTMGWYRQAPGKERELVAAINSGGSTNYADSVKGRFTISRDNAKNTVYLQMNSLKPEDTAVYYCNAYIHPPGPRVYSREYDYWGHGTQVTVSS	low polyreactivity
QVQLVESGGGLVQAGGSLRLSCAASGSIFSLNAMGWYRQAPGKERELVAASGGGSTYYADSVKGRFTISRDNAKNTVYLQMNSLKPEDSAVYYCAARVLTDELDYWGQGTQVTVSS	low polyreactivity
QVQLVESGGGLVQAGVSLSLSCAGSGFIFFQYPMGWYRDAPGKDRELVAAISGSGVTTYYADSVKGRFTISRDYAKKTVYLQMNSLKPEDTAVYYCAALHYRIRRTGMDYWGQGTQVTVSS	low polyreactivity
QVQLVESGGGLVQAGGSLRLSCAASGSIFSYYVMGWYRQAPGKERELVAAITSSGGSTYYADSVKGRFTISRDNAKNTVYLQMNSLKPEDTAVYYCAAYQRSQYRSYPGYEYWGQGTQVTVSS	high polyreactivity
QVHLVESGGGLVQAGGSLRLSCAASGFIFFYYAMGWYRQAPGTERELVAAISRSGGSTYYADSVKGRFTISRDNAKNTVYFQMNSLKPEDTAVYYCAAVWPVIYGMDYWGQGTQVTVSS	high polyreactivity
QVQLVESGGGLVQAGGSLRLSCAASGSIFNVYGMGWYRQAPGKERELVAAISKSGTSTSYADSVKGRFTISRDNAKNTVYLQMNSLKPEDTAVYYRNAGYRTWWGKKYDYWGQGTQVTVSS	low polyreactivity

The record that follows has no polyreactivity (PSR sort gate) shown yet.
Value of polyreactivity (PSR sort gate) reported for the sequence QVQLVESGGGLVQAGGSLRLSCAASGYIFDRYAMGWYRPAPGKERELVAAISVGGGTTYYADSVKGRFTISRDNAKNTVYLQMNSLKPEDTAVYYCAARSDSYAPRRGYWGQGTQVTVSS is high polyreactivity

###

# Assay info: yeast display, Sf9 membrane polyspecificity reagent, FACS + sequencing; frameworks hold sequencing errors
Recorded endpoint: polyreactivity (PSR sort gate)

These solved cases illustrate the format of a correct answer.
Ordered residues	polyreactivity (PSR sort gate)
QVQLVESGGGLVQAGGSLRLSCAASGSTFFLYAMGWYRQAPGKERELVAVITWRGGRTYYADSVKGRFTISRDNAKNTVYLQMNSMKPEDTAVYYCAAEYYWPVKYYYWGQGTQVTVSS	high polyreactivity
QVQLVESGGGLVQAGGNLRLSCAASGNIFYVYAMGWYRQAPGKERELVAAITRSGGRTYYADSVKGRFTISRDNAKNTVYLQMTSLKPEDTAVYYCAADRGVTRQKMDYWGQGTQVTVSS	low polyreactivity
QVQLVESGGGLVQAGGSLRLSCAASGSIFGGYGLGWYRQAPGKERELVAASTSGSSTYYADSVKGRFTISRDNAKNTVYFPMNSLKPEDTAVSYFAARPFPHSAYEGDYWGRGTQVTVSS	low polyreactivity
QVQLVESGGGLVQAGGSLRLSCAASGSIFGYNAMGWYRQAPGKEREFVAAIRWSSGSTYYADSVKGRFTISRDNAKNTVYLQMNSLKPEDTAVYYCATRQTYLYWGQGTQVTVSS	high polyreactivity

The record that follows has no polyreactivity (PSR sort gate) shown yet.
Value of polyreactivity (PSR sort gate) reported for the sequence QVQLVESGGGLVQAGGSLRLSCAASGIIFRWYAMGWYRQAPGKERELLAAITSSGGRTYYADSVKGRFTISRDNAKNTVYFQMNSLKPEDSAVYYCAASYYIVGWDPYDYWGQGTQVTVSS is high polyreactivity

###

# Assay info: yeast display, Sf9 membrane polyspecificity reagent, FACS + sequencing; frameworks hold sequencing errors
Recorded endpoint: polyreactivity (PSR sort gate)

These solved cases illustrate the format of a correct answer.
Ordered residues	Recorded endpoint	Result
QVQLVESGGGLVQAGGSLRLSCAASGFTFWFYAMGWYRQAPGKERELVAAISWDGSRTYYADSVKGRFTISRDHAKNTVYLQMNSLKPEDTAVYYCAAESEDSNYNYWGQGTQVTVSS	polyreactivity (PSR sort gate)	high polyreactivity
QVQLVESGGGLVQAGGSLRLTCAASGRIFWRNAMGWYRQAPGKVREFVAAITGTGGSTYYADSVKGRFTISRDTAKNTVYLQMNSLKPEDTAVYYCAARWDYSYRYRLYYWGQGTQVTVSS	polyreactivity (PSR sort gate)	high polyreactivity
QVQLVESGGGLVQAGGSLRLSCAASGSIFLVYAMGWYRQAPGKERELVAAISRSGRTYADSVKGRFTISRDNAKNTVYLQMNSLKPEDTAVYYCNKLAVRPGYGSTYDYWGQGTQVTVSS	polyreactivity (PSR sort gate)	high polyreactivity
QVQLVESGGGLVQAGGSLRLSCAASGFTFTRYAMGWYRQAPGKERELVAAISSRGGSTNYADSVKGRFTISRDNAKNTVYLQMNSLKPEDTAVYYCAAEYYRLRYEYDYWGQGTQVTVSS	polyreactivity (PSR sort gate)	high polyreactivity
QVQLVESGGGIVQAGGSLRLSCAASGIIIDGNAMGWYRQAPGKERELVAAISSRGGSTYYADSVKGRFTISRDYAKNTVYLQMNSLKPEDTAVYYCAAKVRHYYSASNYYYWGQGTQVTVSS	polyreactivity (PSR sort gate)	high polyreactivity
QVQLVESGGGLVQAGGSLRLSCAASGLTFEWYAMGWYRQAPGKERELVAAISWNGGSTYYADSVKGRFTISRDNAKNTVYLQMNSLKPEDTAVYYCATSSPRRYYWGQGTQVTVSS	polyreactivity (PSR sort gate)	high polyreactivity
QVQLVESGGGLVQAGGSLRLSCAASGFIFDPNAMGWYRQAPGRERELVAAISSSGGRTYYADSVKGRFTISRDNAKNTVYLQMNSLKPEDTAVYYCATDTSVQGQEYDYWGQGTQVTVSS	polyreactivity (PSR sort gate)	low polyreactivity
QVQLVESGGGLVQAGGSLRLSCAASGSISDIYAMGWYRQAPGKERELVASISSGGITNYADSVKGRFTISRDNAKNTVYLQMNSLKPEDTAVYYCAKDRYPISFFYQMEYWGQGTQVTVSS	polyreactivity (PSR sort gate)	low polyreactivity
QVQLVESGGGLVQAGGSLRLSCAASGSIFNYYAMGWYRQEPGKERELVAAISSGGSTYYADSVKGRFTISRDNAKNTVYLQMNSLKPEDTAVYYCAVDSPYLDEYDYWGQGTQVTVSS	polyreactivity (PSR sort gate)	high polyreactivity
QVQLVESGGGLVQAGGSLRLSCAASGNILHYYTMGLYRQAPGKETELVARINYSTGSTYYADSVKGRFTISRDNAKNTVYLQMNSLKPEDTAVYYCAAEKERDEEYDYWGQGTQVTVSS	polyreactivity (PSR sort gate)	low polyreactivity

The record that follows has no polyreactivity (PSR sort gate) shown yet.
Value of polyreactivity (PSR sort gate) reported for the sequence QVQLVESGAGLVQAGGSLRLSCAASGLTFFYYAMGWYRQAPGKERELVAAIDNDGGTYYADSVKGRFTISRDNAKNTVYLLMNSLKPEDTAVYYCNADYQTVDDPYGYDYWGQGTQVTVSS is low polyreactivity

###

# Assay info: yeast display, Sf9 membrane polyspecificity reagent, FACS + sequencing; frameworks hold sequencing errors
Recorded endpoint: polyreactivity (PSR sort gate)

Ordered residues	Recorded endpoint	Result
QVQLVESGGGLVQAGGSLRLSCAASGFTFYRYAMGWYRQAPGKERELVAAITNGGGTYYADSVKGRFTISRDNAKNTVYLQMNSLKPEDTAVYYCAAKSRLPTQGLGIYYWGQGTQVSVSS	polyreactivity (PSR sort gate)	high polyreactivity
QVQLVESGGGLVQAGGSLRVSCAASGNTFGYFAMGWYRQAPGKERELVAAMSGSGGRTYYAASVKGRFTISRDNAKNTVDLQMNILKPEATAVYYCNAVYYHVVDFDYWGQGTQVTVSS	polyreactivity (PSR sort gate)	high polyreactivity
QVQLVESGGGLVQAGGSLRLSCAASGSILFTNAMGWYRQAPGKERELVAAISSGGSTYFADSVKGRFTISRDNAKNTVYLQMNSLKQEDTAVYYCAADQLNVGREYVEYDYWGQGTQVTVSS	polyreactivity (PSR sort gate)	low polyreactivity
QVQIVESGGGLVQAGGSLRLSCAASGSIFFAYAMGSYRQAPGKERELVAAITGSGGSTYADSVKGRFTISRDNAKNTVYVQMNSLKPEDTAVYYCAKDHYYYPYKRLFVGHEYWGQGTQVTVSS	polyreactivity (PSR sort gate)	low polyreactivity

Value of polyreactivity (PSR sort gate) reported for the sequence QVQLVESGGGLVQAGGSLRLSCAASGSTFPGYAMGWYRQAPGKERELVAAISASGGSTYYADSVKGRFTISRDNAKNTVYLQMNSLKPEDTAVYYCAKVLSRGASAHDYWGQGTQVTVSS is low polyreactivity
